- SUBJECT OF TEST: Platelet-activating factor acetylhydrolase (Homo sapiens)
- ASSAY METHOD TEXT: pPAFAH enzyme inhibitors, primary screen, biochemical, fluorescence polarization, human (AID 463082);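 further: inhibitors block binding of the rhodamine activity-based probe so polarization drops; 0% = enzyme with DMSO and 100% = wells lacking pPAFAH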
- ASSAY SETUP: recombinant pPAFAH, FP-rhodamine probe fluorescence polarization; at 3.39 µM; active compounds read high
About 4,900 (1.5%) of roughly 330,000 compounds were called active. This is one part of a sample in which actives are shown more often than they occur.
Please go through the items and note down their inhibition.

[in] // inhibition lookup, key: COCCOC(=O)c1sc(=S)n(CCOC)c1N
[out] 27.2% (active)

[in] // inhibition lookup, key: COc1ccc(CCOC(=O)CNC(=O)c2ccc(Cl)cc2Cl)cc1
[out] -0.13% (inactive)

[in] // inhibition lookup, key: CC(=O)Nc1ccc(Oc2ccc3c(c2)C(=O)NC3=O)cc1
[out] -0.12% (inactive)

[in] // inhibition lookup, key: N#CC1(NC(=O)COC(=O)Cc2n[nH]c(=O)c3ccccc23)CCCCC1
[out] 0.43% (inactive)

[in] // inhibition lookup, key: Cc1ccc(N2NC(=O)/C(=C/C=C/c3ccco3)C2=O)cc1C
[out] 21.3% (inactive)

[in] // inhibition lookup, key: Cc1nn(C(C)C(=O)N2CCOCC2)c(=O)c2nn(-c3ccccc3)c(C)c12 (stereo not given)
[out] -0.47% (inactive)

[in] // inhibition lookup, key: CC(C)c1nc(CNC(=O)CC2C(=O)NCCN2Cc2cccc(F)c2F)cs1 (stereo not given)
[out] 3.46% (inactive)

[in] // inhibition lookup, key: CCC1(CC)C(=O)C2=C3C1[C@H](C(=O)OC)C=C(C(=O)OC)C[C@H]3[C@H]1C(=O)N(Cc3ccccc3)C(=O)[C@H]1[C@H]2C (stereo not given in full)
[out] 9.48% (inactive)

[in] // inhibition lookup, key: Cc1ccc(N=C2NC(=O)/C(=C/C=C/c3ccco3)S2)cc1C
[out] 57.3% (active)

[in] // inhibition lookup, key: CCOc1ccc(S(=O)(=O)NCCC(=O)NCC2CCCO2)cc1 (stereo not given)
[out] -0.87% (inactive)

----------
- SUBJECT OF TEST: Platelet-activating factor acetylhydrolase (Homo sapiens) (UniProt Q13093)
- Sequence (Q13093 whole entry, looked up): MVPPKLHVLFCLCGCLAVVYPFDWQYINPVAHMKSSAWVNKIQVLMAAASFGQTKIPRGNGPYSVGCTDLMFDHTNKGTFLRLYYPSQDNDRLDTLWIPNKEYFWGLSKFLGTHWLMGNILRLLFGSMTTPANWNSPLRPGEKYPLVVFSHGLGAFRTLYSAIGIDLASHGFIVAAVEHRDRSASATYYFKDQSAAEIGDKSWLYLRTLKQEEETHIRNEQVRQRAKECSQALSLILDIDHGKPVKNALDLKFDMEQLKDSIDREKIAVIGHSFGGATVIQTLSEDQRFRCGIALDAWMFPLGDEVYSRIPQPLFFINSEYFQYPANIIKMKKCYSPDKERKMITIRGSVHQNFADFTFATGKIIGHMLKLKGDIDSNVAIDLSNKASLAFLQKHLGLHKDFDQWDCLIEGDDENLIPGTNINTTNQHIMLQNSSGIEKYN
- ASSAY METHOD TEXT: pPAFAH enzyme inhibitors, primary screen, biochemical, fluorescence polarization, human (AID 463082);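 further: inhibitors block binding of the rhodamine activity-based probe so polarization drops; 0% = enzyme with DMSO and 100% = wells lacking pPAFAH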
- ASSAY SETUP: recombinant pPAFAH, FP-rhodamine probe fluorescence polarization; at 3.39 µM; active compounds read high
Among all 330,000 compounds or so, about 4,900 (1.5%) were called active. This excerpt belongs to a sample that is enriched for actives.
MEASUREMENT KIND: inhibition (%)
Write down the numeric answer in % and omit the unit.

[in] // inhibition lookup, key: COc1ccccc1N(CC(=O)Nc1ccc(C)cc1Cl)S(=O)(=O)c1cccs1
[out] 6.13

[in] // inhibition lookup, key: Cn1c(NC(=O)c2ccco2)c(-c2ccccc2Cl)c(=O)c2ccccc21
[out] 1.1

[in] // inhibition lookup, key: C=CCN(Cc1nc(-c2cc(OC)c3c(c2)OCO3)oc1C)C1CCS(=O)(=O)C1 (stereo unspecified)
[out] 30.4

[in] // inhibition lookup, key: CCN1/C(=C\c2ccc3ccccc3[n+]2CC)Sc2cc(C)ccc21
[out] 36.3

[in] // inhibition lookup, key: COc1ccccc1C(=O)N(Cc1ccc(C)o1)C1CCS(=O)(=O)C1 (stereo unspecified)
[out] 0.97

[in] // inhibition lookup, key: CN(CCOc1ccccc1)C(=O)c1cc(-c2ccco2)nc2ccccc12
[out] 17.3

[in] // inhibition lookup, key: NNC(=O)c1oc2nc(-c3ccccc3)cc(-c3ccco3)c2c1N
[out] 37.4

[in] // inhibition lookup, key: O=C(CSc1ccc(-c2ccc(Br)cc2)nn1)NCC1CCCO1 (stereo unspecified)
[out] 3.46

[in] // inhibition lookup, key: CC(C)N(C(=O)CSc1nnc(NC2CC2)s1)c1ccccc1
[out] -0.35

[in] // inhibition lookup, key: Cc1cc(C)cc(N(CC(=O)NC2CCCC2)C(=O)CCC(=O)Nc2nccs2)c1
[out] 1.33

[in] // inhibition lookup, key: Cc1cc(C)c(C2C3=C(Nc4c2c(C)nn4-c2ccccn2)c2ccccc2C3=O)c(C)c1 (stereo unspecified)
[out] -8.35

[in] // inhibition lookup, key: O=C(N/N=C/c1c[nH]c2ccccc12)c1cc2ccccc2o1
[out] 15.3

[in] // inhibition lookup, key: CC(=O)Nc1ccc(S(=O)(=O)NC(C)C(=O)OCC(=O)NC2CCCC2)cc1 (stereo unspecified)
[out] -1.59

[in] // inhibition lookup, key: O=C(COC(=O)Cc1ccc(Br)cc1)Nc1ccc(N2CCOCC2)cc1
[out] 6.93

[in] // inhibition lookup, key: CC(=O)Nc1ccc(S(=O)(=O)Nc2ccc(N3CCCCC3)cc2)cc1
[out] 27.6

[in] // inhibition lookup, key: CC1c2nc3ccccc3n2C(CC(=O)NCCCN2CCOCC2)C(=O)N1Cc1ccccc1 (stereo unspecified)
[out] 3.44

[in] // inhibition lookup, key: COc1ccccc1NC1=NC(c2ccc(Cl)cc2)N=C(N)N1 (stereo unspecified)
[out] 1.26

[in] // inhibition lookup, key: Cc1ccc(NC(=O)Cc2nc(COC(=O)C(C)NS(=O)(=O)c3ccc(C)cc3)cs2)cc1 (stereo unspecified)
[out] 32.8

[in] // inhibition lookup, key: O=C(N=C1SC2CS(=O)(=O)CC2N1c1ccccc1)c1ccccc1 (stereo unspecified)
[out] -2.21

[in] // inhibition lookup, key: CCOc1ccc(N(C)S(=O)(=O)c2cnc[nH]2)cc1
[out] 4.67

[in] // inhibition lookup, key: COc1ccccc1C(=O)NC(=S)Nc1ccccc1N1CCCCC1
[out] 5.28

[in] // inhibition lookup, key: COc1ccc(/C=N/NC(=O)c2ccc3c(c2)OCCO3)c(OC)c1
[out] 11.5

[in] // inhibition lookup, key: O=S(=O)(c1ccc(Cl)cc1)c1nc(-c2ccco2)oc1N1CCCCC1
[out] -3.3

[in] // inhibition lookup, key: Cc1cc(=O)n2nc(N3CCCC(C(=O)NCc4cccc(Cl)c4)C3)sc2n1 (stereo unspecified)
[out] 1.7

[in] // inhibition lookup, key: O=C(COC(=O)c1ccccc1F)Nc1cc(S(=O)(=O)N2CCOCC2)ccc1N1CCCC1
[out] 5.42

[in] // inhibition lookup, key: Cc1ccc(C2(C(F)(F)F)N=C3Sc4cc(C)cc(C)c4N3C(=O)N2)cc1 (stereo unspecified)
[out] 2.43

----------
- SUBJECT OF TEST: Platelet-activating factor acetylhydrolase (Homo sapiens)
- ASSAY METHOD TEXT: pPAFAH enzyme inhibitors, primary screen, biochemical, fluorescence polarization, human (AID 463082);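 further: inhibitors block binding of the rhodamine activity-based probe so polarization drops; 0% = enzyme with DMSO and 100% = wells lacking pPAFAH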
- ASSAY SETUP: recombinant pPAFAH, FP-rhodamine probe fluorescence polarization; at 3.39 µM
Hit rate of the full screen: of about 330,000 compounds, about 4,900 (1.5%) were called active.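 How the source made its calls: active means inhibition above the mean inhibition across the screen plus 3 SD (cut at about 25% in these data); inactive means the rest.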 Only a selection was taken, and actives are over-represented in it overall.
Give one outcome, nothing more. List: active, inactive

[in] Please share the test call associated with COc1ccccc1N1CC(O)=C(c2nc3ccccc3s2)C1=N .
[out] active

[in] Please share the test call associated with Nc1scc(-c2ccncc2)c1Cl .
[out] inactive

[in] Please share the test call associated with COc1cccc(COC(=O)C2CCN(S(=O)(=O)c3cccs3)CC2)c1OC .
[out] inactive

[in] Please share the test call associated with COC(=O)CN1C(=O)[C@H]2[C@@H](/C=C/c3ccccc3)N3C(=O)CN(Cc4ccccc4)C(=O)[C@@]3(Cc3ccccc3)[C@H]2C1=O .
[out] inactive

[in] Please share the test call associated with C=C(C)COc1ccc(-c2n[nH]c(C)c2-c2ccccc2OC)c(O)c1 .
[out] active

[in] Please share the test call associated with Cc1ccc(NC(=O)C2CC(=O)N(c3ccc4c(c3)OCCO4)C2)cc1S(=O)(=O)N1CCCCCC1 (stereo unspecified) .
[out] inactive

[in] Please share the test call associated with COc1cc(C2C(C#N)=C(N)Oc3n[nH]c(-c4ccccn4)c32)cc(OC)c1OC (stereo unspecified) .
[out] inactive

[in] Please share the test call associated with Cc1ccc(C)c(NC(=O)CCC(=O)NNC(=O)c2cccs2)c1 .
[out] inactive

[in] Please share the test call associated with CCN(CC)S(=O)(=O)c1ccc(N2CCN(C)CC2)c(NC(=O)Nc2ccccc2F)c1 .
[out] active

[in] Please share the test call associated with CN1CCN(c2ccc(S(=O)(=O)N3CCCCC3)cc2NC(=O)Cc2ccccc2F)CC1 .
[out] inactive

[in] Please share the test call associated with C=C(C)COc1ccc(-c2n[nH]c(C)c2-c2ccccc2)c(O)c1 .
[out] inactive

[in] Please share the test call associated with NS(=O)(=O)c1ccc(CNC(=O)c2cccc(Oc3ccccc3)c2)cc1 .
[out] inactive

[in] Please share the test call associated with COc1ccc(C2C(C#N)=C(N)Oc3cc(N)ccc32)cc1OC (stereo unspecified) .
[out] active

[in] Please share the test call associated with COc1cc2ccccc2cc1C(=O)Nc1ccc(N2CCOCC2)cc1 .
[out] inactive

[in] Please share the test call associated with O=[N+]([O-])c1ncc(Br)cc1Nc1ccccc1 .
[out] inactive

[in] Please share the test call associated with COc1ccc(COC(=O)NC(C(=O)O)c2ccccc2)cc1 (stereo unspecified) .
[out] inactive

[in] Please share the test call associated with CC(=O)Oc1cccc(N2C(=O)CC(Nc3ccc(N4CCOCC4)cc3)C2=O)c1 (stereo unspecified) .
[out] active

[in] Please share the test call associated with O=C(NCc1ccccc1CN1CCCC1)c1cccc(S(=O)(=O)Nc2ccc(F)cc2)c1 .
[out] active

[in] Please share the test call associated with O=C(CN1C(=O)c2ccc([N+](=O)[O-])cc2C1=O)Nc1nnc(C2CC2)s1 .
[out] inactive

[in] Please share the test call associated with COC(=O)c1ccc(C(NC(=O)OCc2ccccc2)/C(F)=C/[C@@H](C)C(=O)O)cc1 (stereo partly specified) .
[out] inactive

[in] Please share the test call associated with Cc1ccsc1C(=O)NNC(=O)COc1ccc(Br)cc1 .
[out] inactive

[in] Please share the test call associated with Cc1cccc(C(=O)Nc2ccc(C(=O)/C=C/c3cccs3)cc2)c1 .
[out] inactive

[in] Please share the test call associated with COc1ccccc1C(CNC(=O)c1cccc(S(=O)(=O)Nc2ccc(F)cc2)c1)N(C)C (stereo unspecified) .
[out] active

[in] Please share the test call associated with CCN(c1ccccc1)S(=O)(=O)c1cccc(C(=O)NCc2ccccc2CN2CCOCC2)c1 .
[out] inactive

[in] Please share the test call associated with CN(C)c1nccc(NCc2ccccc2)c1C#N .
[out] inactive

[in] Please share the test call associated with COc1ccc(/C=C/C(=O)c2cc(Br)ccc(=O)c2O)cc1 .
[out] active

[in] Please share the test call associated with Cc1ccc(C(=O)NC23CC4CC(CC(C4)C2)C3)c(Cl)c1 .
[out] inactive

[in] Please share the test call associated with Cc1noc(C)c1NC(=O)Nc1ccc2c(c1)C(=O)N([C@H](C)CO)C[C@H](C)[C@@H](CN(C)C(=O)Nc1ccc(C(F)(F)F)cc1)O2 .
[out] inactive

[in] Please share the test call associated with Cc1ccc(C)c(NC(=O)CCC(=O)N/N=C2/CC(=O)CC(C)(C)C2)c1 .
[out] active

[in] Please share the test call associated with CCCCNC(=O)C(C)N(CCN(C)C)C(=O)CCCN1C(=O)NC(c2ccc(Cl)cc2)C(C(=O)OCc2ccccc2)=C1C (stereo unspecified) .
[out] inactive

[in] Please share the test call associated with Cc1ccc(C(=O)CN2C(=O)NC3(CCc4ccccc43)C2=O)c(C)c1 (stereo unspecified) .
[out] inactive
